Each record here notes measured EC50.
EXPERIMENTAL_TARGET: human GLP-1R receptor (Homo sapiens, UniProt P43220, L260F)
Sequence (P43220 24-463 L260F): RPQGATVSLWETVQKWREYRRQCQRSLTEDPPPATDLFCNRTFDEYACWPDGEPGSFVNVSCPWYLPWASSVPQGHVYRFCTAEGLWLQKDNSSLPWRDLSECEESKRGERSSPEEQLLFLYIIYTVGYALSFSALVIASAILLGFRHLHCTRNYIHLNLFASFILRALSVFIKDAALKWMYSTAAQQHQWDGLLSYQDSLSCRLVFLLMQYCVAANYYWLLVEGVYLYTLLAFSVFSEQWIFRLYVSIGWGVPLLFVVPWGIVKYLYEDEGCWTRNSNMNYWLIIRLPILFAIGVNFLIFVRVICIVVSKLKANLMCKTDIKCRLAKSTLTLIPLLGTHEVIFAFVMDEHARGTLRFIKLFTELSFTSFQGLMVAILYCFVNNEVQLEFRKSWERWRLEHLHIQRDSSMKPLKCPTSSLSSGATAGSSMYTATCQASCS
EXPERIMENTAL_PROTOCOL: CHOK1 GLP-1R cAMP assay (HTRF)
CONDITION: CHO-K1 cells stably expressing human GLP-1R
State the answer as a number, implicitly in µM.

N#Cc1ccc(COc2cccc(N3CCN(Cc4nc5ccc(C(=O)O)cc5n4C[C@@H]4CCO4)[C@H]4CC[C@H]43)n2)c(F)c1 (single isomer, unassigned) [Example 2b] : 0.017
CCn1cncc1Cn1c(CN2CCN(c3cccc(OCc4ccc(Cl)cc4F)n3)[C@H]3CC[C@@H]32)nc2c(OC)cc(C(=O)O)cc21 (single isomer, unassigned) [Example 12b] : 0.0089

Let's switch to this molecule now.
Ask: Report EC50, nothing else, for this molecule: O=C(O)c1cc(F)c2nc(CN3CCN(c4cccc(OCc5ccc(Cl)cc5F)n4)[C@@H]4COC[C@@H]43)n(C[C@@H]3CCO3)c2c1 (single isomer, unassigned) [Example 19b]
Result: 0.12

###

EXPERIMENTAL_TARGET: human GLP-1R receptor (Homo sapiens, UniProt P43220, L260F)
EXPERIMENTAL_PROTOCOL: CHOK1 GLP-1R cAMP assay (HTRF)
CONDITION: CHO-K1 cells stably expressing human GLP-1R
# EC50 per entry
# unit: nM | format: bare number

Record excerpt, results attached:
Cn1ccc(Cn2c(CN3CCN(c4cccc(OCc5ccc(C#N)cc5F)n4)[C@@H]4CC[C@@H]43)nc3ccc(C(=O)O)cc32)n1 (racemic) : 130
COc1cc(C(=O)O)cc2c1nc(CN1CCN(c3cccc(OCc4ccc(Cl)cc4F)n3)[C@H]3CC[C@@H]31)n2C[C@@H]1CCO1 (single isomer, unassigned) [Example 5a] : 6.4

Continue with the next compound.
Ask: Tell me measured EC50 for COc1cc(C(=O)O)cc2c1nc(CN1CCN(c3cccc(OCc4ccc(Cl)cc4F)n3)[C@@H]3COC[C@@H]31)n2C[C@@H]1CCO1 (single isomer, unassigned) [Example 16b] please.
Result: 64

###

Here the recorded pEC50 is given for each entry.
EXPERIMENTAL_TARGET: human GLP-1R receptor (Homo sapiens, UniProt P43220, L260F)
EXPERIMENTAL_PROTOCOL: CHOK1 GLP-1R cAMP assay (HTRF)
CONDITION: CHO-K1 cells stably expressing human GLP-1R
Conceptually, pEC50 converts a concentration in mol/L into minus its log10.

Answered examples (4):
O=C(O)c1ccc2nc(CN3CCN(c4cccc(OCc5ccc(Cl)cc5F)n4)[C@@H]4COC[C@@H]43)n(C[C@@H]3CCO3)c2c1 (racemic) : 8.48
N#Cc1ccc(COc2cccc(N3CCN(Cc4nc5c(Cl)cc(C(=O)O)cc5n4C[C@@H]4CCO4)[C@H]4CC[C@H]43)n2)c(F)c1 (single isomer, unassigned) [Example 6d] : 8.46
N#Cc1ccc(COc2cccc(N3CCN(Cc4nc5cc(F)c(C(=O)O)cc5n4C[C@@H]4CCO4)[C@H]4CC[C@@H]43)n2)c(F)c1 (single isomer, unassigned) [Example 9a] : 6.74
O=C(O)c1ccc2nc(CN3CCN(c4cccc(OCc5ccc(Cl)cc5F)n4)[C@@H]4COC[C@@H]43)n(Cc3cocn3)c2c1 (single isomer, unassigned) : 7.46

Ask: Note pEC50 for the compound shown: N#Cc1ccc(COc2cccc(N3CCN(Cc4nc5ccc(C(=O)O)cc5n4C[C@@H]4CCO4)[C@H]4CC[C@H]43)n2)c(F)c1 (single isomer, unassigned) [Example 2a]
Result: 8.92

Ask: Entry N#Cc1ccc(COc2cccc(N3CCN(Cc4nc5c(Cl)cc(C(=O)O)cc5n4C[C@@H]4CCO4)[C@H]4CC[C@H]43)n2)c(F)c1 (single isomer, unassigned) [Example 6a] needs its pEC50 filled in; supply it.
Result: 9.22

Ask: Given Cc1nccn1CCn1c(CN2CCN(c3cccc(OCc4ccc(Cl)cc4F)n3)[C@@H]3COC[C@@H]32)nc2ccc(C(=O)O)cc21 (single isomer, unassigned) [Example 25a] , respond with its pEC50.
Result: 6.96

Ask: Determine its reported pEC50: N#Cc1ccc(COc2cccc(N3CCN(Cc4nc5ccc(C(=O)O)c(Cl)c5n4C[C@@H]4CCO4)[C@H]4CC[C@H]43)n2)c(F)c1 (single isomer, unassigned) [Example 8c]
Result: 6.85

Ask: Indicate the recorded pEC50 value for this compound: O=C(O)c1cc(F)c2nc(CN3CCN(c4cccc(OCc5ccc(Cl)cc5F)n4)[C@@H]4COC[C@@H]43)n(C[C@H]3CCOC3)c2c1 (single isomer, unassigned) [Example 18a]
Result: 6.96

###

Here the recorded IC50 is given for each entry.
EXPERIMENTAL_TARGET: human phosphodiesterase-3A (Homo sapiens)
EXPERIMENTAL_PROTOCOL: PDE3 assay (formation of 5'AMP from cAMP, SPA)
CONDITION: human recombinant enzyme expressed in Sf9 cells
Output spec: scalar in µM, unitless text.

COc1cc(C(=O)O)cc2c1nc(CN1CCN(c3cccc(OCc4ccc(Cl)cc4F)n3)[C@@H]3COC[C@@H]31)n2C[C@@H]1CCO1 (single isomer, unassigned) [Example 16a] : 29
N#Cc1ccc(COc2cccc(N3CCN(Cc4nc5ccc(C(=O)O)cc5n4C[C@@H]4CCO4)[C@H]4COC[C@H]43)n2)c(F)c1 (racemic) : 3.5
N#Cc1ccc(COc2cccc(C3CCN(Cc4nc5ccc(C(=O)O)cc5n4C[C@@H]4CCO4)CC3)n2)c(F)c1 [Ref Comp B, reference compound] : 11
N#Cc1ccc(COc2cccc(N3CCN(Cc4nc5cc(F)c(C(=O)O)cc5n4C[C@@H]4CCO4)[C@H]4CC[C@@H]43)n2)c(F)c1 (single isomer, unassigned) : 4.6

Proceeding to the next molecule to report its IC50.
Ask: Provide the reported IC50 (system: human phosphodiesterase-3A (Homo sapiens)) for N#Cc1ccc(COc2cccc(N3CCN(Cc4nc5c(F)cc(C(=O)O)cc5n4C[C@@H]4CCO4)[C@H]4CC[C@@H]43)n2)c(F)c1 (single isomer, unassigned)
Result: 11

###

EXPERIMENTAL_TARGET: human GLP-1R receptor (Homo sapiens, UniProt P43220, L260F)
EXPERIMENTAL_PROTOCOL: CHOK1 GLP-1R cAMP assay (HTRF)
CONDITION: CHO-K1 cells stably expressing human GLP-1R
METRIC_NAME: EC50 (nM)
Numbers only here, please. The scale is nM.

Below: 2 compounds and their reported EC50.
Cc1nccn1CCn1c(CN2CCN(c3cccc(OCc4ccc(Cl)cc4F)n3)[C@@H]3COC[C@@H]32)nc2c(F)cc(C(=O)O)cc21 (single isomer, unassigned) : 170
N#Cc1ccc(COc2cccc(N3CCN(Cc4nc5c(F)cc(C(=O)O)cc5n4C[C@@H]4CCO4)[C@H]4CC[C@@H]43)n2)c(F)c1 (single isomer, unassigned) [Example 3a] : 23

Ask: Supply reported EC50 belonging to this compound: CCCCOCCn1c(CN2CCN(c3cccc(OCc4ccc(C#N)cc4F)n3)[C@@H]3CC[C@@H]32)nc2ccc(C(=O)O)cc21 (racemic)
Result: 150

###

EXPERIMENTAL_TARGET: human phosphodiesterase-3A (Homo sapiens, UniProt Q14432)
Sequence (Q14432 whole entry): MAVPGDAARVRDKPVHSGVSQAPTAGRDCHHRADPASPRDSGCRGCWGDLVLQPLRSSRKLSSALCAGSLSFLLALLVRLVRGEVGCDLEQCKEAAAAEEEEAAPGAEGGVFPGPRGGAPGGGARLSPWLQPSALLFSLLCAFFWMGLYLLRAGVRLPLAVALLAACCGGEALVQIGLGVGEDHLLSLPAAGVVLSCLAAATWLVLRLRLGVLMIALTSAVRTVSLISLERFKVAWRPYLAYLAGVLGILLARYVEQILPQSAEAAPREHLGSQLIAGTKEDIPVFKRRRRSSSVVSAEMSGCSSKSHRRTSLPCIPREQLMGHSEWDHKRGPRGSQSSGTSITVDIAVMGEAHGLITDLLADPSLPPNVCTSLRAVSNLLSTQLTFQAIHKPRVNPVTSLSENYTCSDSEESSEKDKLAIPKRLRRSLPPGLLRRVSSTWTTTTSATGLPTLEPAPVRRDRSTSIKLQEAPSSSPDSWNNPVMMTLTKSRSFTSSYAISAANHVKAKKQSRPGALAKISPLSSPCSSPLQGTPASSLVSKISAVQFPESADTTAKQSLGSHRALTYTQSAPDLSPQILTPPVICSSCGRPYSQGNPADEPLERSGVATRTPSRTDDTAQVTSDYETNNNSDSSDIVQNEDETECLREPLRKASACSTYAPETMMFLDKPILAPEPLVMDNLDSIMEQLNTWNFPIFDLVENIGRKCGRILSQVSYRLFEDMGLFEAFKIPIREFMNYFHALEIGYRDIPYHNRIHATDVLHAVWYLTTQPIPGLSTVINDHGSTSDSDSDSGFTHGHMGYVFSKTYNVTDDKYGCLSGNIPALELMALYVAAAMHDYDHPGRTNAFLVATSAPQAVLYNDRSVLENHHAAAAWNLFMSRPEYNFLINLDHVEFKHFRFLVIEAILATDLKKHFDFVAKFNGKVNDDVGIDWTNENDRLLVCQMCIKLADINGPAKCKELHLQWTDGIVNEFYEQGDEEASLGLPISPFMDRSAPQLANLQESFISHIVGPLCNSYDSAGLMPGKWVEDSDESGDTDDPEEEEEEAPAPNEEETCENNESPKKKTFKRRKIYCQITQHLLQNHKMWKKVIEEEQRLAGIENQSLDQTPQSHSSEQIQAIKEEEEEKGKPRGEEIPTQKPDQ
EXPERIMENTAL_PROTOCOL: PDE3 assay (formation of 5'AMP from cAMP, SPA)
CONDITION: human recombinant enzyme expressed in Sf9 cells
Description: Evaluation of the effects of compounds on the activity of the human phosphodiesterase-3A is quantified by measuring the formation of 5′AMP from cAMP using a human recombinant enzyme expressed in a clonal isolate of Spodoptera frugiperda cells (Sf9) cells. […] Following incubation SPA beads are added. After 30 min at 22° C. under shaking, the amount of [^3H]5′AMP is quantified with a scintillation counter (Topcount, Packard). […]
METRIC_NAME: pIC50
FYI, pIC50 means -log10 of a concentration in mol per litre.

Below: 2 molecules and their reported pIC50.
COc1cc(C(=O)O)cc2c1nc(CN1CCN(c3cccc(OCc4ccc(C#N)cc4F)n3)[C@H]3CC[C@@H]31)n2C[C@@H]1CCO1 (single isomer, unassigned) [Example 4b] : 5.19
N#Cc1ccc(COc2cccc(N3CCN(Cc4nc5c(Cl)cc(C(=O)O)cc5n4C[C@@H]4CCO4)[C@H]4CC[C@H]43)n2)c(F)c1 (single isomer, unassigned) [Example 6a] : 5.54

Ask: Give reported pIC50 value for N#Cc1ccc(COc2cccc(N3CCN(Cc4nc5cc(Cl)c(C(=O)O)cc5n4C[C@@H]4CCO4)[C@H]4CC[C@H]43)n2)c(F)c1 (single isomer, unassigned) [Example 7a]
Result: 5.66

###

EXPERIMENTAL_TARGET: GLP-1R (Homo sapiens)
Sequence (P43220 24-463): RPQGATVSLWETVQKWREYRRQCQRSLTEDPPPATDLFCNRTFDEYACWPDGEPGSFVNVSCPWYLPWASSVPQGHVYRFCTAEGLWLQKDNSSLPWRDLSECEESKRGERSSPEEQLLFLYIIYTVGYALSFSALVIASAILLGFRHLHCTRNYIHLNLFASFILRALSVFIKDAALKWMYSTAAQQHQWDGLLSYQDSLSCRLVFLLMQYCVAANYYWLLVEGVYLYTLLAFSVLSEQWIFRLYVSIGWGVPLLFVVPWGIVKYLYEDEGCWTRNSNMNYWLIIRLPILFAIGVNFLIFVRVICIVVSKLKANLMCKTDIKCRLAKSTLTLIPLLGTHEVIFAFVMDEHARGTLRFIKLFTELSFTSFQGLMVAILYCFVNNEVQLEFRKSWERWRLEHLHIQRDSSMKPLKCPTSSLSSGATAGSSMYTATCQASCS
EXPERIMENTAL_PROTOCOL: EndoC cAMP accumulation assay (HTRF, EndoC-βH1 cells)
CONDITION: EndoC-βH1 human pancreatic β cell line
EC50 values for the compounds below.
Value expressed in µM; do not type the unit.

// known answers, use as guide
Cc1nccn1CCn1c(CN2CCN(c3cccc(OCc4ccc(Cl)cc4F)n3)[C@@H]3COC[C@@H]32)nc2ccc(C(=O)O)cc21 (single isomer, unassigned) [Example 25b] : 1.1
N#Cc1ccc(COc2cccc(N3CCN(Cc4nc5ccc(C(=O)O)c(Cl)c5n4C[C@@H]4CCO4)[C@H]4CC[C@H]43)n2)c(F)c1 (single isomer, unassigned) [Example 8c] : 0.62
O=C(O)c1ccc2nc(CN3CCN(c4cccc(OCc5ccc(Cl)cc5F)n4)[C@@H]4COC[C@@H]43)n(Cc3cccnc3)c2c1 (single isomer, unassigned) : 0.071
Cc1nccn1CCn1c(CN2CCN(c3cccc(OCc4ccc(Cl)cc4F)n3)[C@@H]3COC[C@@H]32)nc2c(Cl)cc(C(=O)O)cc21 (single isomer, unassigned) : 0.34
COc1cc(C(=O)O)cc2c1nc(CN1CCN(c3cccc(OCc4ccc(Cl)cc4F)n3)[C@@H]3COC[C@@H]31)n2C[C@@H]1CCO1 (single isomer, unassigned) [Example 16b] : 0.12
O=C(O)c1cc(F)c2nc(CN3CCN(c4cccc(OCc5ccc(Cl)cc5F)n4)[C@@H]4COC[C@@H]43)n(C[C@@H]3CCO3)c2c1 (single isomer, unassigned) [Example 19a] : 0.004
O=C(O)c1ccc2nc(CN3CCN(c4cccc(OCc5ccc(Cl)cc5F)n4)[C@@H]4COC[C@@H]43)n(Cc3cocn3)c2c1 (single isomer, unassigned) : 0.037
Cn1ccc(Cn2c(CN3CCN(c4cccc(OCc5ccc(C#N)cc5F)n4)[C@@H]4CC[C@@H]43)nc3ccc(C(=O)O)cc32)n1 (racemic) : 0.28

Ask: Give recorded EC50. N#Cc1ccc(COc2cccc(N3CCN(Cc4nc5c(Cl)cc(C(=O)O)cc5n4C[C@@H]4CCO4)[C@H]4CC[C@H]43)n2)c(F)c1 (single isomer, unassigned) [Example 6a]
Result: 0.0019

Ask: Identify measured EC50 corresponding to N#Cc1ccc(COc2cccc(N3CCN(Cc4nc5ccc(C(=O)O)cc5n4C[C@@H]4CCO4)[C@H]4COC[C@H]43)n2)c(F)c1 (racemic)
Result: 0.014

Ask: Supply recorded EC50 for COc1cc(C(=O)O)cc2c1nc(CN1CCN(c3cccc(OCc4ccc(C#N)cc4F)n3)[C@H]3CC[C@@H]31)n2C[C@@H]1CCO1 (single isomer, unassigned) [Example 4b] here.
Result: 0.003

Ask: Input N#Cc1ccc(COc2cccc(N3CCN(Cc4nc5cc(F)c(C(=O)O)cc5n4C[C@@H]4CCO4)[C@H]4CC[C@@H]43)n2)c(F)c1 (single isomer, unassigned) [Example 9a] , output reported EC50.
Result: 0.069
